# assay summary: Primary fluorescence-based thiol-reactive (MSTI) qHTS assay for identification of artifact compounds. (AID 1845221); also: nearly all actives have a fitted effect of over 65% in size
# run parameters: MSTI thiol-reactivity probe, 1 h; series mostly up to 53.8 µM
Results filed as inconclusive are left out. Calls of active or inactive are those of the source. Calls follow the shape of the dose curve; as a rule, active = well fitted inhibition curve with a large enough effect; inconclusive = small, poorly fitted or top-dose-only effect; inactive = no such curve, though single readings can be large or run the other way. Where a SMILES comes first, the peptide text is derived from it.
Outcome codes: Y for active, N for inactive

compound	class label
C=Cc1ccc(O[C@@H]2O[C@H](CO[C@@H]3O[C@@H](C)[C@H](O)[C@@H](O)[C@H]3O)[C@@H](O)[C@H](O)[C@H]2O)cc1	Y
CC(C)(O)[C@@H]1CC[C@]2(CO)[C@@H](O)CC[C@](C)(O)[C@H]2[C@@H]1O[C@@H]1O[C@H](CO)[C@@H](O)[C@H](O)[C@H]1O	N
CC(C)C1C(OC(=O)/C=C/c2ccccc2)CC2(C)OC2CCC2(C)OC2C1O (stereo unspecified)	N
Cc1noc2c1-c1ccccc1C(c1ccc(Cl)cc1)=N[C@H]2CC(N)=O	N
CC1(C(=O)O)CCCC2(C)C3CCC4CC3(CCC12)CC4(O)CO (stereo unspecified)	N
O=C(/C=C/c1ccc(O)c(O)c1)O[C@@H]1[C@@H](O)[C@H](OC2CCCCC2O)O[C@H](CO)[C@H]1O (stereo partly specified)	Y
O=C(COCC(=O)N1CCN(C(c2ccccc2)c2ccccc2)CC1)Nc1ccc(Cl)cc1C(=O)O	N
COc1ccc(C2C(C(=O)O)C(C(=O)O)C2c2ccc(OC)cc2O[C@@H]2O[C@H](CO)[C@@H](O)[C@H](O)[C@H]2O)c(O[C@@H]2O[C@H](CO)[C@@H](O)[C@H](O)[C@H]2O)c1 (stereo partly specified)	Y
CC(C)C1NC(=O)CNC(=O)C2CCCN2C(=O)C(Cc2c[nH]c3ccccc23)NC(=O)CNC(=O)C(Cc2ccc(O)cc2)NC(=O)CNC1=O (stereo unspecified) (cyclo(GVGYGWP); configuration not given here)	N
Nc1nc2c(nc(Sc3ccc(Cl)cc3)n2[C@@H]2O[C@@H]3COP(=O)(O)O[C@H]3[C@H]2O)c(=O)[nH]1	N
C=C(C)C1Cc2c(ccc3c2OCC(c2ccc(O)cc2O)C3)O1 (stereo unspecified)	N
CCC(C)/C=C(C)/C=C/C1=CC2=C(Cl)C(=O)C(C)(OC(C)=O)C(=O)C2=CN1C(CCCN=C(N)N)C(=O)O (stereo unspecified)	Y
C[C@@H]1C[C@@H](O)[C@@]23CO[C@]2(CO)CCC[C@@H]3[C@@]12C[C@@H](c1ccoc1)OC2=O	N
COc1cc(/C=C/C(=O)O[C@@H]2O[C@H](CO)[C@@H](O)[C@H](O)[C@H]2O)ccc1O	Y
C=C(C(=O)O)C1CC(O)C2(C)CCCC(C)(O)C2C1 (stereo unspecified)	Y
O=C(/C=C/c1ccc(O)c(O)c1)O[C@H]1[C@H](OC2CCCCC2O)O[C@H](CO)[C@@H](O)[C@@H]1O (stereo partly specified)	Y
